test-target: recombinant human leukotriene A4 hydrolase enzyme (Homo sapiens, UniProt P09960)
Construct: purchased Cayman Chemical 10007817
Sequence (P09960 whole entry): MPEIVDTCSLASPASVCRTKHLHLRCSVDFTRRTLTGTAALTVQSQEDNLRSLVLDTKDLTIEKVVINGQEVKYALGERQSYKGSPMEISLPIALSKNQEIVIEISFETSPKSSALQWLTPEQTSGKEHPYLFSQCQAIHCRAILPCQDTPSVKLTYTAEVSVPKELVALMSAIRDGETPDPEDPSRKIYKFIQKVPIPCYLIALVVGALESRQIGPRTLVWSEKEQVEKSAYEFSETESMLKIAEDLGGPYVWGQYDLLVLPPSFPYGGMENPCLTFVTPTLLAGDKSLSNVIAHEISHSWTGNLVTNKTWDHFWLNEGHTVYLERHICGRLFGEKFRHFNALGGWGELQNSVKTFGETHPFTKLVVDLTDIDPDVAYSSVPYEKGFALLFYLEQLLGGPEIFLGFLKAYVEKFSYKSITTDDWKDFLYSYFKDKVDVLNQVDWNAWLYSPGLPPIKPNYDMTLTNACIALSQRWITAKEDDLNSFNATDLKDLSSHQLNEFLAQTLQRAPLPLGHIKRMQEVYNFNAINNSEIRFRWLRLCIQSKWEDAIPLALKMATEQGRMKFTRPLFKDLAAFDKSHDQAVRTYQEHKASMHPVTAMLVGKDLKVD
experiment: Amino-peptidase assay, alanine-4-nitroanalide
Assay type: biochemical
settings: negative values = augmented peptidase activity, read-out: % Inhibition aminopeptidase-Alanine-4-nitroanalide activity of LTA4H (3 μM)
// reported inhibition at 3 µM for each item listed

molecule | test-target | inhibition at 3 µM
CCC(=O)CCc1ccc(Oc2nc3ccccc3o2)c(OC)c1 | recombinant human leukotriene A4 hydrolase enzyme (Homo sapiens, UniProt P09960) | 0 to 50%
CC(O)(CCc1ccc(OCc2ccc3ccccc3n2)cc1)C(F)(F)F (stereo not shown) | recombinant human leukotriene A4 hydrolase enzyme (Homo sapiens, UniProt P09960) | > 75%
OC(c1ccc(Oc2nc3ccccc3s2)c(Cl)c1)C(F)(F)F (stereo not shown) | recombinant human leukotriene A4 hydrolase enzyme (Homo sapiens, UniProt P09960) | > 75%
COc1cc(CCC(C)(O)c2ccccc2)ccc1Oc1nc2ccccc2o1 (stereo not shown) | recombinant human leukotriene A4 hydrolase enzyme (Homo sapiens, UniProt P09960) | < 25%

Query OC(c1ccc(Oc2nc3ccccc3s2)cc1)C(F)(F)F (stereo not shown) yields inhibition at 3 µM of < 25%

Query COc1cc(C(C)(O)C(F)(F)F)ccc1Oc1nc2ccccc2s1 (stereo not shown) yields inhibition at 3 µM of 0 to 50%

Query OC(c1ccc(Oc2nc3c(F)cc(F)cc3s2)cc1)C(F)(F)F (stereo not shown) yields inhibition at 3 µM of > 75%

Query CCOc1cc(CCC(O)(CC)C(F)(F)F)ccc1Oc1nc2ccccc2s1 (stereo not shown) yields inhibition at 3 µM of 0 to 50%

Query CCC(=O)CCc1ccc(Oc2nc3ccccc3s2)cc1 yields inhibition at 3 µM of < 25%

Query CSc1cccc2sc(Oc3ccc(C(C)O)cc3)nc12 (stereo not shown) yields inhibition at 3 µM of < 25%

Query CCC(O)CCc1ccc(Oc2nc3ccccc3s2)c(OCC2CC2)c1 (stereo not shown) yields inhibition at 3 µM of > 75%

Query COc1cc(Oc2nc3ccccc3s2)ccc1C(O)C(F)(F)F (stereo not shown) yields inhibition at 3 µM of < 25%

Query CCC(O)(CCc1ccc(Oc2nc3ccc(OC)cc3s2)c(OC)c1)C(F)(F)F (stereo not shown) yields inhibition at 3 µM of 0 to 50%

Query COc1cc(CCC(C)(O)c2ccccc2)ccc1Oc1nc2ccccc2s1 (stereo not shown) yields inhibition at 3 µM of 25 to 50%

Query CCC(O)CCc1ccc(Oc2nc3ccccc3s2)c(OC2CCCC2)c1 (stereo not shown) yields inhibition at 3 µM of > 75%

Query CCC(C)(O)CCc1ccc(Oc2nc3ccccc3o2)cc1 (stereo not shown) yields inhibition at 3 µM of < 25%

Query CC(O)(CCc1ccc(Oc2nc3ccccc3s2)c(Cl)c1)C(F)(F)F (stereo not shown) yields inhibition at 3 µM of 50 to 75%

Query CCC(=O)CCc1ccc(Oc2nc3ccccc3s2)c(Cl)c1 yields inhibition at 3 µM of < 25%

====

Tested on: LTB4 production in MC/9 cells
experiment: MC/9 HPLC assay, inhibition of LTB4 production
Type: cell-based
settings: Mus musculus, MC9, Table 2 column 4, no concentration in head (1 μM according to b732), read-out: % Inhibition LTB4
Experimental: Cultured MC/9 cells (3×10^6 cells) in 1 mL HBSS were pre-incubated with a series of concentrations of compound solubilized in DMSO for 30 minutes. […] The leukotrienes were analyzed by HPLC using an ACE C18 column (4.5 mm×150 mm, 5 m) eluted with acetonitrile/methanol/water mixture with H3PO4, pH 3.5 (37:26:37) with a flow rate of 1.8 mL/min. […]
value-kind: inhibition at 1 µM

Completed entries (count: 8):
compound | test-target | inhibition at 1 µM
COc1cc(CCC(O)(c2ccccc2)C(F)(F)F)ccc1Oc1nc2ccccc2s1 (stereo not drawn) | LTB4 production in MC/9 cells | 30 to 50%
CCC(O)(CCc1ccc(Oc2nc3ccc(F)cc3s2)c(OC)c1)C(F)(F)F (stereo not drawn) | LTB4 production in MC/9 cells | > 90%
CC(CCc1ccc(Oc2nc3ccccc3s2)cc1)N1CCCC1 (stereo not drawn) | LTB4 production in MC/9 cells | > 90%
CCC(C)(O)CCc1ccc(Oc2nc3ccccc3o2)cc1 (stereo not drawn) | LTB4 production in MC/9 cells | > 90%
CCNC(c1ccc(Oc2nc3ccccc3s2)c(OC)c1)C(F)(F)F (stereo not drawn) | LTB4 production in MC/9 cells | 10 to 30%
CCC(C)(O)CCc1ccc(Oc2nc3ccccc3s2)cc1 (stereo not drawn) | LTB4 production in MC/9 cells | > 90%
COc1cc(CCC(C)O)ccc1Oc1nc2ccccc2s1 (stereo not drawn) | LTB4 production in MC/9 cells | 30 to 50%
CCC(O)(CCc1ccc(Oc2nc3c(F)cc(F)cc3s2)c(OC)c1)C(F)(F)F (stereo not drawn) | LTB4 production in MC/9 cells | > 90%

The reported inhibition at 1 µM value, LTB4 production in MC/9 cells, for COc1cc(CCC(C)(C)O)ccc1Oc1nc2ccccc2o1 reads 10 to 30%
